For each of the compounds below, state its inhibition at 10 µM.
# STUDY TARGET: human PDE4B1 (Homo sapiens, UniProt Q07343)
# Construct: host or cells: Sf9 cells
# Sequence (Q07343 whole entry): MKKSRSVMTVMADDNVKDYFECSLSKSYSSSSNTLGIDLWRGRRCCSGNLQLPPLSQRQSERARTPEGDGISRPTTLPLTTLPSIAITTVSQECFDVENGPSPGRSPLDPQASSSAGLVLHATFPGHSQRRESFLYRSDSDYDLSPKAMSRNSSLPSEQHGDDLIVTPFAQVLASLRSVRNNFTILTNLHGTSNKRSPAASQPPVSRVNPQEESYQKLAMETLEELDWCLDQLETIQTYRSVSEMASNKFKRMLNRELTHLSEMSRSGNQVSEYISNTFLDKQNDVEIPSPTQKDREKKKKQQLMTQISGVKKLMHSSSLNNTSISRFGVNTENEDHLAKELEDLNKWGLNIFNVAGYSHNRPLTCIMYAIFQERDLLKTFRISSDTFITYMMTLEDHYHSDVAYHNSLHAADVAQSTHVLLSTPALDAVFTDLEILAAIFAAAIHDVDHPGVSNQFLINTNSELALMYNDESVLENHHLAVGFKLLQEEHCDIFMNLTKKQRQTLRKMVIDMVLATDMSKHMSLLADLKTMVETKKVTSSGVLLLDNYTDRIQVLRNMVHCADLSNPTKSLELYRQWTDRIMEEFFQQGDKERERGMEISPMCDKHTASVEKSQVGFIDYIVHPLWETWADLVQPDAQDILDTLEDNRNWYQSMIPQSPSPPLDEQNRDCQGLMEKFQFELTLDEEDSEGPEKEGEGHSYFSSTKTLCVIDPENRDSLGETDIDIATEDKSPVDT
# EXPERIMENTAL DETAILS: TR-FRET assay using the LANCE Ultra cAMP kit to determine the activity of hPDE4B1
# Assay type: biochemical
# CONDITION DETAILS: test concentration 10 μM (marked in cell), read-out: Inhibition in % (inhibition of PDE4B)
// units = %; emit number, no label

Query (compound): Cc1ccc(F)c(-c2cnc(-n3cc(C(C)O)c4ccc(C(=O)N(C)CC(N)=O)cc43)nc2)c1 (stereo not shown) ; field requested: inhibition at 10 µM
103

Query (compound): CCc1ccnc(-c2cnc(-n3cc([S+](C)[O-])c4ccc(C(=O)N5CC[C@@H](N)C5)cc43)nc2)c1 (stereo partly shown) ; field requested: inhibition at 10 µM
102

Query (compound): Cc1ccnc(-c2cnc(-n3cc(C(C)O)c4ccc(C(=O)N5CCOCC5)cc43)nc2)c1 (stereo not shown) ; field requested: inhibition at 10 µM
96

Query (compound): CNC(=O)CN(C)C(=O)c1ccc2c([S+](C)[O-])cn(-c3ncc(-c4cc(C)ccc4F)cn3)c2c1 (stereo not shown) ; field requested: inhibition at 10 µM
115

Query (compound): C[S+]([O-])c1cn(-c2ncc(-c3cc(C4CC4)ccn3)cn2)c2cc(C(=O)N3CCCC3)ccc12 (stereo not shown) ; field requested: inhibition at 10 µM
108

Query (compound): C[S+]([O-])c1cn(-c2ncc(-c3cc(NCC4CC4)ccc3F)cn2)c2cc(C(=O)N3CCOCC3)ccc12 (stereo not shown) ; field requested: inhibition at 10 µM
97

Query (compound): C[S+]([O-])c1cn(-c2ncc(-c3ccccc3F)cn2)c2cc(C(=O)N3C[C@@H]4C[C@H]3CO4)ccc12 (stereo partly shown) ; field requested: inhibition at 10 µM
101

Entry source: patent US9315490B2
